biological target: human recombinant A1 adenosine receptor (Homo sapiens); experiment: [3H]-DPCPX binding to human A1 adenosine receptor expressed in CHO cells; conditions: percentage given after the > bound; meaning not defined in the patent
Sequence (P30542 whole entry): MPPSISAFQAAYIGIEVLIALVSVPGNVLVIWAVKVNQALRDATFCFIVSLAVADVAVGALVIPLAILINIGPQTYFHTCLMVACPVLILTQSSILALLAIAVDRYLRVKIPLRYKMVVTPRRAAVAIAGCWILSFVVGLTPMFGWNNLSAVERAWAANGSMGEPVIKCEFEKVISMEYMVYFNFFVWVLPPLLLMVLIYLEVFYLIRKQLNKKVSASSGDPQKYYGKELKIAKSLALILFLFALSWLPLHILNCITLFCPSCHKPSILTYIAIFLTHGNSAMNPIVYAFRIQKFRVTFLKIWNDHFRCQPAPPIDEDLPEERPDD
A collection of compounds and their measured [3H] DPCPX binding to hA1, percentage in parentheses
Expressed in %, but write only the number.

CCCn1c(=O)c2c(nc3[nH]c(C4CCCCC4)cn32)n(Cc2ccccc2)c1=O; 72
CCCn1c(=O)c2c(nc3[nH]c(C(C)(C)C)cn32)n(Cc2ccccc2)c1=O; 51
CCCn1c(=O)c2c(nc3[nH]c(-c4ccc(F)cc4)cn32)n(Cc2ccccc2)c1=O; 90
CCCn1c(=O)c2c(nc3n2CC(c2ccccc2)=NN3CCO)n(Cc2ccccc2)c1=O; 91
CCCn1c(=O)c2c(nc3[nH]c(-c4ccccc4)cn32)n(Cc2ccccc2)c1=O; 83

I would be grateful if you could share the reported [3H] DPCPX binding to hA1, percentage in parentheses for CCCn1c(=O)c2c(nc3n2CC(c2ccccc2)=C3)n(Cc2ccccc2)c1=O .
75

Similarly, CCCn1c(=O)c2c(nc3[nH]c(-c4ccc(-c5ccccc5)cc4)cn32)n(Cc2ccccc2)c1=O ?
95

Similarly, CCCn1c(=O)c2c(nc3[nH]c(C)c(C)n32)n(Cc2ccccc2)c1=O ?
84

Similarly, CCCn1c(=O)c2c(nc3[nH]c(CC)cn32)n(Cc2ccccc2)c1=O ?
65

----------
A collection of compounds and their measured [3H] ZM 241385 binding to hA2A receptors, percentage in parentheses
biological target: human recombinant A2A adenosine receptors (Homo sapiens); assay: Radioligand binding to hA2A receptors expressed in CHO cells; settings: percentage given after the > bound; meaning not defined in the patent
Sequence (P29274 whole entry): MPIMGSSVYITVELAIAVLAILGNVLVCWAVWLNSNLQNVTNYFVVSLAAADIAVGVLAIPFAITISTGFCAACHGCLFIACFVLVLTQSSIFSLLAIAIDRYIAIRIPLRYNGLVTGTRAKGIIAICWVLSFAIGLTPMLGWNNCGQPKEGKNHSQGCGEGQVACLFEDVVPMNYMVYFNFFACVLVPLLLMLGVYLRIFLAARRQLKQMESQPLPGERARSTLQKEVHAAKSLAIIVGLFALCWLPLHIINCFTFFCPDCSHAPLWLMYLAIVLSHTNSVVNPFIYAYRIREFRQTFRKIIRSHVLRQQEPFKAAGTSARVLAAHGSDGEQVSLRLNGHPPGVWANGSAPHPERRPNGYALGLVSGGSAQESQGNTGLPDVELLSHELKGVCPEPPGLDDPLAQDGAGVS
Expressed in %, but write only the number.

I would be grateful if you could share the reported [3H] ZM 241385 binding to hA2A receptors, percentage in parentheses for CCCn1c(=O)c2c(nc3[nH]c(-c4ccc(OC)cc4)cn32)n(Cc2ccccc2)c1=O .
99

Similarly, CCCn1c(=O)c2c(nc3[nH]c(-c4ccccc4)cn32)n(Cc2ccccc2)c1=O ?
99

Similarly, CCCn1c(=O)c2c(nc3[nH]c(-c4ccc(F)cc4)cn32)n(Cc2ccccc2)c1=O ?
97

Similarly, CCCn1c(=O)c2c(nc3n2CC(c2ccccc2)=C3)n(Cc2ccccc2)c1=O ?
99

Similarly, CC(C)Cn1c(=O)c2c(nc3[nH]c(-c4ccccc4)cn32)n(CC(C)C)c1=O ?
86

Similarly, CCCn1c(=O)c2c(nc3[nH]c(-c4ccccc4)cn32)n(CCC)c1=O ?
78

Similarly, CCCn1c(=O)c2c(nc3n2CC(C)=C3)n(Cc2ccccc2)c1=O ?
99

Similarly, CCCn1c(=O)c2c(nc3[nH]c(C4CCCCC4)cn32)n(Cc2ccccc2)c1=O ?
99

Similarly, CCCn1c(=O)c2c(nc3[nH]c(C(C)(C)C)cn32)n(Cc2ccccc2)c1=O ?
99

Similarly, CCCn1c(=O)c2c(nc3[nH]c(C(C)C)cn32)n(Cc2ccccc2)c1=O ?
91

Similarly, CCCn1c(=O)c2c(nc3n2CC(c2ccccc2)=NN3CCO)n(Cc2ccccc2)c1=O ?
99

Similarly, CCCn1c(=O)c2c(nc3[nH]c(C)c(C)n32)n(Cc2ccccc2)c1=O ?
92

Similarly, CCCn1c(=O)c2c(nc3[nH]c(-c4ccc(-c5ccccc5)cc4)cn32)n(Cc2ccccc2)c1=O ?
98

Similarly, CCCn1c(=O)c2c(nc3n2CC(c2ccccc2)=NN3C)n(Cc2ccccc2)c1=O ?
99

Similarly, CCCn1c(=O)c2c(nc3[nH]c(CC)c(C)n32)n(Cc2ccccc2)c1=O ?
97

Similarly, CCCn1c(=O)c2c(nc3[nH]c(CC)cn32)n(Cc2ccccc2)c1=O ?
99

Similarly, CCCn1c(=O)c2c(nc3[nH]c(C4CC4)cn32)n(Cc2ccccc2)c1=O ?
98

Similarly, Cc1cn2c(nc3c2c(=O)n(C)c(=O)n3C)[nH]1 ?
99

Similarly, CCCn1c(=O)c2c(nc3n2C(C)C(C)=C3)n(Cc2ccccc2)c1=O (stereo not shown) ?
91
